Recorded IC50 by entry
test system: L6; experiment: Cytotoxicity against rat L6 cells after 70 hrs by alamar blue assay; assay type: cell-based; conditions: L6, 70 h
Give just the numeric value; µM need not be written.

Structure Smiles String	Quantity Name	Assay Value
Cc1ccnc(NC(=O)c2ccc(F)c(F)c2C)c1	IC50	223
Cc1c(F)cccc1C(=O)Nc1ccccn1	IC50	310
Cc1ccccc1C(=O)Nc1cc(C#Cc2ccccc2)ccn1	IC50	198
Cc1ccccc1C(=O)Nc1cc(-c2ccccc2)ccn1	IC50	70

Kindly review the next compound as well.
Supply reported IC50 belonging to this compound: Cc1ccccc1C(=O)Nc1cc(Cl)ccn1
224

* * *

assay: Selectivity index, ratio of IC50 for HEK293 cells to IC50 for Trypanosoma brucei brucei 427; assay type: toxicity, cell-based; conditions: human, read-out: Ratio IC50
Quantity Name: selectivity ratio

Please list selectivity ratio recorded for the compound Cc1ccccc1C(=O)Nc1cc(Br)ccn1
> 41

* * *

assay: Plasma protein binding in human […] by chromatographic method; format: ADME, cell-free; settings: read-out: PPB (converted)
Quantity Name: fraction unbound
// response body must contain only the number

Some compounds with known fraction unbound results, for comparison:
Structure Smiles String	fraction unbound
Cc1ccccc1C(=O)Nc1ncccn1	0.024
Cc1ccccc1C(=O)Nc1cc(C#Cc2ccccc2)ccn1	0.017
Cc1ccnc(NC(=O)c2cccc(F)c2C)c1	0.276
Cc1cc(Br)ccc1C(=O)Nc1ccccn1	0.119
Cc1ccccc1C(=O)Nc1cc(Cl)ccn1	0.134
COc1ccc(NC(=O)c2ccccc2C)nc1	0.399

Next:
Identify measured fraction unbound associated with Cc1ccccc1C(=O)Nc1cc(C#N)ccn1
0.359

* * *

The molecules listed here are annotated with their selectivity ratio.
assay: Selectivity index, ratio of IC50 for HEK293 cells to IC50 for Trypanosoma brucei brucei 427; assay type: toxicity, cell-based; details: human, read-out: Ratio IC50
Form: value (number only, do not type unit).

Answered cases to consult:
Structure Smiles String	selectivity ratio
Cc1cccc(C(=O)Nc2ccccn2)c1C	24
Cc1ccnc(NC(=O)c2cccc(F)c2C)c1	100

Shift focus to the following entry.
Specify selectivity ratio for Cc1c(Br)cccc1C(=O)Nc1ccccn1 and stop.
15

* * *

assay: Partition coefficient, log D of the compound at pH 7.4 by HPLC method; type: physicochemical; conditions: octanol/water
Returns y if the recorded logD is greater than or equal to 3, and n otherwise.

Examples from the recorded data:
Structure Smiles String	Class Label
Cc1ccnc(NC(=O)c2ccccc2C)c1	n
Cc1c(F)cccc1C(=O)Nc1ccccn1	n
Cc1ccccc1C(=O)Nc1cc(C#N)ccn1	n
Cc1ccnc(NC(=O)c2cccc(F)c2C)c1	y

# evaluate next
I'd appreciate it if you could say whether Cc1cc(Br)ccc1C(=O)Nc1ccccn1 has logD at least equal to 3.
y

* * *

assay: Kinetic solubility of the compound at 10 mg/ml at pH 2 by nephelometry; assay type: physicochemical; settings: buffer, read-out: Kinetic_solubility
Quantity Name: solubility kinetic

Structure Smiles String	solubility kinetic
Cc1ccnc(NC(=O)c2ccccc2C)c1	> 100 µg/mL
Cc1ccccc1C(=O)Nc1cccc(F)n1	> 100 µg/mL

// next entry
Dear colleague, please send me the reported solubility kinetic for COc1ccc(NC(=O)c2ccccc2C)nc1 when you can.
> 100 µg/mL

* * *

assay: Selectivity index, ratio of IC50 for HEK293 cells to IC50 for Trypanosoma brucei brucei 427; assay type: toxicity, cell-based; details: human, read-out: Ratio IC50
Quantity Name: selectivity ratio

Structure Smiles String	selectivity ratio
Cc1ccccc1C(=O)Nc1cc(C#Cc2ccccc2)ccn1	> 51
Cc1ccccc1C(=O)Nc1cccc(N)n1	> 19

As a next step, examine the compound that follows.
Check the records and state selectivity ratio for CCC/C=C/c1cccc(NC(=O)c2ccccc2C)n1
> 3

src = ChEMBL document CHEMBL3352586
